assay-text: molar heat capacity at constant pressure
run-parameters: 303.15 K; 2000 kPa; Liquid; Small sample (50 mg) DSC
Measured molar heat capacity at constant pressure values are reported for all entries that follow.
experimental-readout: molar heat capacity at constant pressure (J/K/mol)

>>> recorded_number("CCCCCCn1cc[n+](C)c1.F[B-](F)(F)F [1-hexyl-3-methylimidazolium tetrafluoroborate]")
432.39
>>> recorded_number("CCn1cc[n+](C)c1.F[B-](F)(F)F [1-ethyl-3-methylimidazolium tetrafluoroborate]")
306.61
>>> recorded_number("CCCCn1cc[n+](C)c1.F[B-](F)(F)F [1-butyl-3-methylimidazolium tetrafluoroborate]")
368.31
>>> recorded_number("CCCCCCCC[n+]1ccn(C)c1.F[B-](F)(F)F [1-methyl-3-octylimidazolium tetrafluoroborate]")
503.5

----------
Measured molar heat capacity at constant pressure values are reported for all entries that follow.
assay-text: molar heat capacity at constant pressure
run-parameters: 318.15 K; 8000 kPa; Liquid; Small sample (50 mg) DSC
experimental-readout: molar heat capacity at constant pressure (J/K/mol)

>>> recorded_number("CCCCCCn1cc[n+](C)c1.F[B-](F)(F)F [1-hexyl-3-methylimidazolium tetrafluoroborate]")
440.81
>>> recorded_number("CCn1cc[n+](C)c1.F[B-](F)(F)F [1-ethyl-3-methylimidazolium tetrafluoroborate]")
312.29
>>> recorded_number("CCCCCCCC[n+]1ccn(C)c1.F[B-](F)(F)F [1-methyl-3-octylimidazolium tetrafluoroborate]")
512
>>> recorded_number("CCCCn1cc[n+](C)c1.F[B-](F)(F)F [1-butyl-3-methylimidazolium tetrafluoroborate]")
375.03

----------
assay-text: molar heat capacity at constant pressure
run-parameters: 308.15 K; 4000 kPa; Liquid; Small sample (50 mg) DSC
Numbers after ± are expanded uncertainties.
experimental-readout: molar heat capacity at constant pressure

>>> result("CCn1cc[n+](C)c1.F[B-](F)(F)F [1-ethyl-3-methylimidazolium tetrafluoroborate]")
"308.43 ± 4.8 J/K/mol"
>>> result("CCCCCCCC[n+]1ccn(C)c1.F[B-](F)(F)F [1-methyl-3-octylimidazolium tetrafluoroborate]")
"506.54 ± 7.8 J/K/mol"
>>> result("CCCCn1cc[n+](C)c1.F[B-](F)(F)F [1-butyl-3-methylimidazolium tetrafluoroborate]")
"370.49 ± 5.7 J/K/mol"
>>> result("CCCCCCn1cc[n+](C)c1.F[B-](F)(F)F [1-hexyl-3-methylimidazolium tetrafluoroborate]")
"435.1 ± 6.7 J/K/mol"

----------
assay-text: molar heat capacity at constant pressure
run-parameters: 313.15 K; 20000 kPa; Liquid; Small sample (50 mg) DSC
Measured molar heat capacity at constant pressure values are reported for all entries that follow.
experimental-readout: molar heat capacity at constant pressure (J/K/mol)

>>> recorded_number("CCCCCCCC[n+]1ccn(C)c1.F[B-](F)(F)F [1-methyl-3-octylimidazolium tetrafluoroborate]")
509.35
>>> recorded_number("CCCCn1cc[n+](C)c1.F[B-](F)(F)F [1-butyl-3-methylimidazolium tetrafluoroborate]")
372.85
>>> recorded_number("CCn1cc[n+](C)c1.F[B-](F)(F)F [1-ethyl-3-methylimidazolium tetrafluoroborate]")
310.54
>>> recorded_number("CCCCCCn1cc[n+](C)c1.F[B-](F)(F)F [1-hexyl-3-methylimidazolium tetrafluoroborate]")
438.13

----------
assay-text: molar heat capacity at constant pressure
run-parameters: 308.15 K; 30000 kPa; Liquid; Small sample (50 mg) DSC
experimental-readout: molar heat capacity at constant pressure (J/K/mol)

>>> recorded_number("CCCCCCCC[n+]1ccn(C)c1.F[B-](F)(F)F [1-methyl-3-octylimidazolium tetrafluoroborate]")
506.49
>>> recorded_number("CCCCCCn1cc[n+](C)c1.F[B-](F)(F)F [1-hexyl-3-methylimidazolium tetrafluoroborate]")
435.55
>>> recorded_number("CCCCn1cc[n+](C)c1.F[B-](F)(F)F [1-butyl-3-methylimidazolium tetrafluoroborate]")
370.69
>>> recorded_number("CCn1cc[n+](C)c1.F[B-](F)(F)F [1-ethyl-3-methylimidazolium tetrafluoroborate]")
308.84

----------
assay-text: molar heat capacity at constant pressure
run-parameters: 318.15 K; 20000 kPa; Liquid; Small sample (50 mg) DSC
experimental-readout: molar heat capacity at constant pressure (J/K/mol)

>>> recorded_number("CCCCCCCC[n+]1ccn(C)c1.F[B-](F)(F)F [1-methyl-3-octylimidazolium tetrafluoroborate]")
511.99
>>> recorded_number("CCCCn1cc[n+](C)c1.F[B-](F)(F)F [1-butyl-3-methylimidazolium tetrafluoroborate]")
375.16
>>> recorded_number("CCCCCCn1cc[n+](C)c1.F[B-](F)(F)F [1-hexyl-3-methylimidazolium tetrafluoroborate]")
440.99
>>> recorded_number("CCn1cc[n+](C)c1.F[B-](F)(F)F [1-ethyl-3-methylimidazolium tetrafluoroborate]")
312.47

----------
assay-text: molar heat capacity at constant pressure
run-parameters: 318.15 K; 10000 kPa; Liquid; Small sample (50 mg) DSC
experimental-readout: molar heat capacity at constant pressure (J/K/mol)

>>> recorded_number("CCCCCCCC[n+]1ccn(C)c1.F[B-](F)(F)F [1-methyl-3-octylimidazolium tetrafluoroborate]")
511.99
>>> recorded_number("CCCCn1cc[n+](C)c1.F[B-](F)(F)F [1-butyl-3-methylimidazolium tetrafluoroborate]")
375.05
>>> recorded_number("CCCCCCn1cc[n+](C)c1.F[B-](F)(F)F [1-hexyl-3-methylimidazolium tetrafluoroborate]")
440.84
>>> recorded_number("CCn1cc[n+](C)c1.F[B-](F)(F)F [1-ethyl-3-methylimidazolium tetrafluoroborate]")
312.32

----------
Measured molar heat capacity at constant pressure values are reported for all entries that follow.
assay-text: molar heat capacity at constant pressure
run-parameters: 288.15 K; 10000 kPa; Liquid; Small sample (50 mg) DSC
experimental-readout: molar heat capacity at constant pressure (J/K/mol)

>>> recorded_number("CCCCCCCC[n+]1ccn(C)c1.F[B-](F)(F)F [1-methyl-3-octylimidazolium tetrafluoroborate]")
493.11
>>> recorded_number("CCCCn1cc[n+](C)c1.F[B-](F)(F)F [1-butyl-3-methylimidazolium tetrafluoroborate]")
362.29
>>> recorded_number("CCCCCCn1cc[n+](C)c1.F[B-](F)(F)F [1-hexyl-3-methylimidazolium tetrafluoroborate]")
425.21
